B1: HDAC6 (parent)
chain: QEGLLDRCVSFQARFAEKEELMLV

Variants of: B1
Experiment: protein stability index of a GFP-peptide fusion (GPS, HEK-293T) (PSI 1-6); higher = more stable;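 further: lentivirally expressed fusions sorted by FACS into six bins by GFP to DsRed ratio, PSI derived from sequencing read proportions per bin multiplied by bin number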
Conditions: c terminus: a fixed tail appended
// protein stability index lookup, one value per entry

Change | protein stability index
D6R | 2
L4P | 2.04
A13P | 2.05
V24R | 3.31
L21D | 4.3
E20D | 2.32
E2W | 1.57
G3P | 1.78
V9H | 1.94
